Below, each entry is listed with its recorded inhibition.
target: L-lactate dehydrogenase (Plasmodium falciparum (isolate CDC / Honduras)); assay: PfLDH activity inhibition – cell lysate, 3D7 strain, counter-screen for P. falciparum growth inhibition project (AID 2304);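 note: 0% = vehicle and 100% = reference inhibitor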; settings: P. falciparum 3D7 crude extract, LDH APAD/NBT absorbance; at 2 µM; hits give high values
Activity calls are given as the source filed them. The rule behind the calls is not given here.

Below, 5 compounds whose answers are already recorded.
O=C(Cc1cnc[nH]1)Nc1cccc(-c2cccc(-c3nc4ccccc4[nH]3)c2)c1: -2% (inactive)
Cc1cccc2[nH]c(-c3ccc(-c4cccc(CNC5CCN(C)CC5)c4)s3)nc12: 2% (inactive)
COc1ccc(Cl)cc1N1CCN(CCCNC(=O)c2ccc(-c3nc4cc(Cl)c(Cl)cc4[nH]3)c(C)c2)CC1: 2% (inactive)
Cc1cc(N[C@@H](CC(C)C)C(=O)Nc2ccccc2)nc(NCCc2ccccc2)n1: -1% (inactive)
OC1CCCN(Cc2ccc(-c3ccc(-c4nc5ccc(F)cc5[nH]4)s3)cc2)C1 (centres undefined): -5% (inactive)

Clc1ccc(Nc2nc3ccc(Cl)cc3nc2Nc2ccc(Cl)cc2)cc1 yielded inhibition of 3% (inactive)

O=C(Nc1ccc2ccccc2c1)N(CCCn1ccnc1)Cc1csc(-c2ccc(CNCc3ccccc3)cc2)n1 yielded inhibition of 0% (inactive)

O=C(CCN(Cc1ccco1)c1nc(-c2ccc(F)cc2)nc2ccccc12)NC1CC1 yielded inhibition of 4% (inactive)

Nc1nc2c(ncn2OC[C@H](CO)OCP(=O)(O)O)c(=O)[nH]1 yielded inhibition of -4% (inactive)
